test system: Calu-3; assay: cell viability relative to DMSO; higher = less toxic; details: 72 h; 10000 nM
assay metric: cell viability
Mention the unit after the number when you answer.

Worked set:
May I ask what cell viability has been recorded for COCCN1CCC(C(=O)NO)(S(=O)(=O)c2ccc(Oc3ccc(OC(F)(F)F)cc3)cc2)CC1 ?
88.1%

May I ask what cell viability has been recorded for O=C1CC(=O)c2c(Cl)c(Cl)c(Cl)c(Cl)c21 ?
89.2%

More entries:
May I ask what cell viability has been recorded for CC(=O)N1CCN(CCOc2ccc(C3CCN(C4=Nn5c(nnc5C(F)(F)F)CC4)CC3)cc2)CC1 ?
91%

May I ask what cell viability has been recorded for O=c1c2ccccc2nc2n1CCc1c-2[nH]c2ccccc12 ?
87.9%
